# System: UACC-62 melanoma
# EXPERIMENT SUMMARY: NCI-60 one-dose screen, 48 h
# TEST CONDITIONS: 10 µM unless noted
The panel holds about 83,000 compounds, 20% with a hit somewhere; the sample as a whole holds those more often. Calls of active or inactive are those of the source. The calls were made as follows: active = growth percent below 10; inactive = the rest.
Return exactly one item of True for active, False for inactive

Query: Hello, I am checking results. What call was entered for O=C(CC1(O)C(=O)N(Cc2ccccc2)c2ccc(Cl)cc21)c1ccc(C(=O)NCC2CCC3(CC2)OOC2(CCCCC2)OO3)cc1 (stereo not given) ?
Response: False

Query: Identify the outcome logged in this assay for the compound shown: NC(=O)C(Br)c1ccccc1 (stereo not given)
Response: False

Query: Which outcome did this test record for the compound CC(C)COC(C[N+](=O)[O-])C(Cl)(Cl)Cl (stereo not given) ?
Response: False

Query: Status in this test for CNC(=O)Oc1cccc(C(F)(F)F)c1 ?
Response: False

Query: // param item: CNCc1cccnc1 ; yields the recorded call
Response: False

Query: Assay outcome for CNC(=O)Oc1ccc(N(C)C)cc1C(C)C : what was it?
Response: False

Query: # lookup: test call for CCCCN1CCCC[C@@H]1C(=O)N[C@H](C(=O)N(C)[C@H](CCc1nc(C(=O)N[C@@H](Cc2ccccc2)C[C@H](C)C(=O)OC)cs1)C(C)C)[C@@H](C)CC
Response: False

Query: Assay outcome for O=C1C2CCC1C(N1CCCC1)CC2 (stereo not given) : what was it?
Response: False

Query: Please indicate how the test categorized Cc1cc(N(CCCl)CCCl)ccc1C=Nc1ccccc1-c1ccccc1 .
Response: True

Query: Tell me the recorded outcome of this test for COC(=O)[C@@H](C)C[C@H](Cc1ccc(F)cc1)NC(=O)c1csc([C@@H](C[C@H](C(C)C)N(C)C(=O)[C@@H](NC(=O)[C@H]2CCCCN2C)C2CC2)OC(C)=O)n1 .
Response: False

Query: Please state the recorded outcome for this compound: CCOP(=O)(Cc1ccc(C#N)cc1)OCC
Response: False

Query: Recorded test outcome, item C=CC[Se]C(=O)c1ccccc1OC(C)=O
Response: True

Query: Any idea what this test logged for COc1ccc(N(CC(=O)NCCC[Te]c2ccccc2)C(=O)CCSC2=C(C)C(=O)c3ccccc3C2=O)cc1 ?
Response: True

Query: Returns: the outcome recorded for CCCCCCCCCCCCCC[P+](CCCCCC)(CCCCCC)CCCCCC in this assay.
Response: True

Query: Please let me know the test result on file for CC1(C)N=C(N)N=C(N)N1c1ccc(CCC(=O)Nc2ccc(S(=O)(=O)F)cc2)c(Cl)c1 .
Response: False

Query: Which outcome was entered for the compound COC(=O)[C@H](C[C@H](Cc1ccccc1)NC(=O)c1csc([C@@H](C[C@H](C(C)C)N(C)C(=O)[C@@H](NC(=O)[C@H]2CCCCN2C)C(C)C)OC(C)=O)n1)NC(=O)OCc1ccccc1 in this test?
Response: False

Query: // return assay outcome for COc1cc(/C=C/[N+](=O)[O-])c([N+](=O)[O-])cc1OC
Response: True

Query: Record request — test call for CN[C@]1(c2ccccc2Cl)CCCC[C@H]1NCCCN1CCN(C)CC1
Response: False

Query: Could you kindly confirm the outcome this assay logged for COc1cc(/C=C/[N+](=O)[O-])cc(OC)c1 ?
Response: True

Query: Could you check what this test reported for O=C1C(Cl)=C(N2CCOCC2)C(=O)c2ccccc21 ?
Response: False

* * *

# Test system: A549/ATCC NSCLC
# EXPERIMENT SUMMARY: NCI-60 one-dose screen, 48 h
# TEST CONDITIONS: 10 µM unless noted
The panel holds about 83,000 compounds, 20% with a hit somewhere; the sample as a whole holds those more often. The source made the active and inactive calls. How the source made its calls: active means growth percent below 10; inactive means the rest.
Answer with one of the outcomes 1 (yes) = active, 0 (no) = inactive

Query: Just curious, what result did CC1(C)N=C(N)N=C(N)N1c1ccc(CCC(=O)Nc2ccc(S(=O)(=O)F)cc2)c(Cl)c1 get here?
Response: 1 (yes)

Query: Field: outcome | Entry: CCC(CC)CC1(C)CC2(C)CCOC2OO1 (stereo not given)
Response: 0 (no)

Query: Any idea what this test logged for Cn1cc(-c2csc(-c3cn(CCN4CCOCC4)c4ccccc34)n2)c2cccnc21 ?
Response: 0 (no)

Query: Any idea what this test logged for CCCCCCCCCCCCNC(c1ccccc1)C(O)c1ccccc1 (stereo not given) ?
Response: 0 (no)

Query: For this molecule, state the assay outcome: CC[C@@H]1[C@@H](C)O[C@@](O)([C@@H](C)[C@H](O)[C@H](C)[C@H]2OC(=O)/C=C/C=C/[C@H](C)[C@@H]([C@@H](C)[C@@H](O)[C@H](C)[C@@]3(O)C[C@@H](O[C@H]4C[C@@H](O)[C@H](O)C(C)O4)[C@H](CC)[C@@H](C)O3)OC(=O)/C=C/C=C/[C@@H]2C)C[C@H]1O[C@@H]1C[C@@H](O)[C@H](O)C(C)O1 (stereo not given in full)
Response: 1 (yes)

* * *

# Tested on: ACHN renal
# EXPERIMENT SUMMARY: NCI-60 one-dose screen, 48 h (100 = growth as untreated, 0 = no growth, -100 = all killed)
# TEST CONDITIONS: 10 µM unless noted
Compounds without any hit were thinned out: in the full panel of roughly 83,000, 20% have a hit.
Label 1 when growth >= 40%; otherwise -1.

Query: Can Clc1cccc(NCOOC2(OOCNc3cccc(Cl)c3)CCCCC2)c1 be said to have growth at or above 40%?
Response: -1

Query: Answer whether growth of C[S+]1C=Cc2ccccc2C1c1ccc(Cl)cc1 (configuration not stated) is greater than or equal to 40%.
Response: 1

Query: Does the compound CCCCCCCCCCCCCCCCCC1OC[C@H](COC(=O)O[C@@H](C(=O)O[C@H]2C[C@@]3(O)[C@@H](OC(=O)c4ccccc4)[C@@H]4[C@]5(OC(C)=O)CO[C@@H]5C[C@H](O)[C@@]4(C)C(=O)[C@H](OC(C)=O)C(=C2C)C3(C)C)[C@@H](NC(=O)c2ccccc2)c2ccccc2)O1 (some centres not stated) have recorded growth that is 40% or more?
Response: 1

Query: Determine whether measured growth meets or exceeds 40% for Fc1ccc2c(c1)c(-c1nc(-c3c[nH]c4ncccc34)cs1)cn2CCCCN1CCCCC1
Response: -1

Query: Quick check, growth >= 40%? Cc1ccc2c(C(C[N+](=O)[O-])c3cccs3)c(-c3ccccc3)[nH]c2c1 (configuration not stated)
Response: -1

Query: Has O=C1C(N2CC2)=C(N2CC2)C(=O)C(N2CC2)=C1N1CC1 a recorded growth greater than or equal to 40%?
Response: -1

* * *

# Test system: SK-OV-3 ovarian
# EXPERIMENT SUMMARY: NCI-60 one-dose screen, 48 h (100 = growth as untreated, 0 = no growth, -100 = all killed)
# TEST CONDITIONS: 10 µM unless noted
# Experimental: Growth inhibition of the SK-OV-3 human tumor cell line is measured as a screen for anti-cancer activity. Cells are grown in 96 well plates and exposed to the test compound for 48 hours. Compounds are tested at a single concentration, which is 10^-5 M for most compounds. The reported endpoint is percent growth (GI% or GIPRCNT), where numbers from 0 - 100% represent growth inhibition, and numbers from -100% - 0 represent cell death. For example, a value of 40 represents 60% growth inhibition. […]
About 83,000 compounds went through this panel and 20% of them were active in at least one assay; those are over-represented in the sample as a whole.
Kind request: treat 90% as inclusive, so growth at 90% or higher is 1, anything lower is 0.

Query: Does CC[C@H](C)[C@H](NC(=O)NC(C)(C)C)C(=O)N(C)[C@H](C[C@@H](OC(C)=O)c1nc(C(=O)N[C@@H](Cc2ccccc2)C[C@H](C)C(=O)OC)cs1)C(C)C have a reported growth of at least 90%?
Response: 0

Query: Is growth for COc1ccc(C2=CC(c3ccc(OC)c(OC)c3)c3c(c4ccccc4oc3=O)O2)cc1OC (centres undefined) at or above 90%?
Response: 0

Query: API: above_or_equal(metric=growth, cutoff=90%) for item CNC12C3C4C1C1C2C3C41C(=O)N[C@H](C(=O)N(C)[C@H](C[C@@H](OC(C)=O)c1nc(C(=O)N[C@@H](Cc2ccccc2)C[C@H](C)C(=O)OC)cs1)C(C)C)C1CC1 (some centres undefined)
Response: 0

Query: Hi, just wondering whether CC1(C)N=C(N)N=C(N)N1c1ccc(CCC(=O)Nc2ccc(S(=O)(=O)F)cc2)c(Cl)c1 shows growth of 90% or higher.
Response: 0

Query: Can CCOC(=O)C(Cc1ccc(N(CCCl)CCCl)cc1)NC(=O)C(CC(C)C)NC(C)=O (centres undefined) be said to have growth at or above 90%?
Response: 0

Query: Textbook exercise: given the entry O=C(Nc1ccncc1F)c1cn(CC2CC2)c2ccccc12 , state whether its growth is greater than or equal to 90%.
Response: 1

Query: Please check the record C#Cc1ccc2c(c1)C(c1ccccc1)=NCC(=O)N2C and state if its growth is at or above 90%.
Response: 0

Query: Decide: is the reported value of growth for CC1=C(O)[C@@](C)(CCCCC[C@H](C)CCCCc2ccc(O)cc2)OOC1=O equal to or greater than 90%?
Response: 1

Query: Hi team, for Clc1cccc(N2COOC3(OOC2)C2CC4CC(C2)CC3C4)c1 , is the recorded growth at or above 90%?
Response: 1

Query: For this compound, is measured growth 90% or higher? Cc1cnc(/C=C/C(=O)O)cc1-c1cc2c(cc1C)C(C)(C)CCC2(C)C
Response: 0

Query: Given CC(C)COC(C[N+](=O)[O-])C(Cl)(Cl)Cl (centres undefined) , state whether its growth is at least 90%.
Response: 1

Query: hey, is growth for this one >= 90%? O=[As](O)(O)c1ccccc1[As](=O)(O)O
Response: 1

Query: API: above_or_equal(metric=growth, cutoff=90%) for item CCCCC1(CCC)C(=O)NC(=S)NC1=O
Response: 1

Query: Test whether the compound CC[C@H](C)[C@H](NC(=O)C12CC(NC(C)=O)(C1)C2)C(=O)N(C)[C@H](C[C@@H](OC(C)=O)c1nc(C(=O)N[C@@H](Cc2ccccc2)C[C@H](C)C(=O)OC)cs1)C(C)C records growth of 90% or higher.
Response: 0

Query: Does the reported growth for COC(=O)[C@@]1(C)CC[C@]2(C)CC[C@]3(C)C4=CC(=O)c5c(cc(O)c(O)c5C)[C@]4(C)CC[C@@]3(C)[C@@H]2C1 fall at or above the 90% mark?
Response: 0

Query: growth >= 90% for Oc1c(O)c(Cl)c(Cl)c(Cl)c1Cl ?
Response: 0

Query: Decide: growth of CN[C@@]1(c2ccccc2Cl)CCCC[C@@H]1NCC1CCCO1 (some centres undefined) >= 90%?
Response: 1

Query: hey, is growth for this one >= 90%? Nc1ccc2c(c1)Cc1cc(Br)ccc1-2
Response: 1
